Assay: Clinical study in healthy adult subjects: pharmacokinetics
Format: in vivo, human
Conditions: human, plasma, po, 20 mg, single oral dose 20 mg, mean (%CV), read-out: T1/2 (converted)
Recorded endpoint: half-life (h)
All answers are understood in h, so give the number only.

[ask] Need half-life of `C[C@H](Nc1ncnc2[nH]cnc12)c1cc2cccc(Cl)c2c(=O)n1-c1ccccc1` , thanks.
[reply] 7.79

---

Tested on: B cell
Assay: B cell proliferation
Type: cell-based
Recorded endpoint: EC50

Solved entries (count: 7):
Compound | EC50
CC(Nc1ncnc2[nH]cnc12)c1cc2cccc(Cl)c2c(=O)n1-c1ccccc1 (centres unmarked) [Compound 237] | < 0.1 µM
Cc1cccc2cc(Cn3nc(Br)c4c(N)ncnc43)n(-c3ccccc3F)c(=O)c12 [Compound 35] | < 1 µM
Cc1ccccc1-n1c(Cn2nc(-c3ccc(O)cc3)c3c(N)ncnc32)cc2cccc(C)c2c1=O [Compound 36] | < 1 µM
Cc1cccc2cc(Cn3nc(C(F)F)c4c(N)ncnc43)n(-c3ccccc3)c(=O)c12 [Compound 308] | < 0.1 µM
Cc1cccc2cc(Cn3nc(-c4cc(O)cc(F)c4)c4c(N)ncnc43)n(-c3ccccc3Cl)c(=O)c12 [Compound 97] | < 0.1 µM
Cc1cccc2cc([C@@H](C)Nc3ncnc4[nH]cnc34)n(C3CCC3)c(=O)c12 [Compound 197] | < 10 µM
Cc1cccc2cc(Cn3nc(C#CC4CC4)c4c(N)ncnc43)n(-c3ccccc3F)c(=O)c12 [Compound 4] | < 1 µM

[ask] Recall the recorded EC50 for CCc1ccccc1-n1c(Cn2nc(I)c3c(N)ncnc32)cc2cccc(C)c2c1=O [Compound 77] with B cell and state it.
[reply] < 1 µM

---

System: B cell
Assay: B cell proliferation
Assay type: cell-based
pEC50: −log10 of the molar value.
Recorded endpoint: pEC50

[ask] Return reported pEC50; argument: CC(C)n1c(Cn2nc(-c3cccc(O)c3)c3c(N)ncnc32)cc2ccccc2c1=O [Compound 135]
[reply] > 6.00

[ask] For the compound Cc1cccc2cc(Cn3nc(-c4ccc(F)c(O)c4)c4c(N)ncnc43)n(-c3ccccc3F)c(=O)c12 [Compound 9] , what pEC50 is on record?
[reply] > 6.00

[ask] I am curious: what pEC50 value has been reported for Cc1cccc2cc(Cn3nc(-c4ccc(Cl)c(O)c4)c4c(N)ncnc43)n(-c3ccccc3F)c(=O)c12 [Compound 24] ?
[reply] > 6.00

[ask] Give its pEC50 value. Item: Cc1cccc2cc(Cn3nc(CF)c4c(N)ncnc43)n(-c3ccccc3)c(=O)c12 [Compound 311]
[reply] > 7.00

[ask] Can you share its pEC50? I mean this compound: Cc1cccc2cc(Cn3nc(-c4cc(O)cc(F)c4)c4c(N)ncnc43)n(C3CCOCC3)c(=O)c12 [Compound 128]
[reply] > 7.00

[ask] I'd like to know its pEC50. The compound in question is Cc1ccccc1-n1c(C(C)Nc2ncnc3[nH]cnc23)cc2cccc(C)c2c1=O (stereo not shown) [Compound 191]
[reply] > 7.00

[ask] Looking for the measured pEC50 of Nc1ncnc2c1c(-c1cc(O)cc(F)c1)nn2Cc1cc2cccc(Cl)c2c(=O)n1C1CC1 [Compound 142] , can you help?
[reply] > 7.00

---

Experiment: Embryo/fetal developmental toxicity study in rabbits
Settings: female, rabbit, in vivo; pregnant rabbits, last day of dosing, 75 mg/kg/day; read-out: mean AUC0-24 hr at the NOAEL
Recorded endpoint: AUC(0-t) (µg·h/mL)
The reply should be a number in µg·h/mL, with the unit left off.

[ask] # query: AUC(0-t) of entry C[C@H](Nc1ncnc2[nH]cnc12)c1cc2cccc(Cl)c2c(=O)n1-c1ccccc1 [Compound 292]
[reply] 66.2
